# Tested on: NOMO1
# measurement.protocol: cell viability relative to DMSO control; higher = less cytotoxic
# setup.conditions: RPMI 5 mM glucose + 10% FBS; 48 h; 0.00234 µM
measure: cell viability (%)
Record the value in %, omitting the unit from your answer.

Consider the following illustrative entries.
NC1=NC=C(C=C1)C2=CC=C3N=CC\4=C(N(C(=O)\C=C4)C5=CC(=CC=C5)C(F)(F)F)C3=C2    83.9
CC(=O)N1CCN(c2ccc(OC[C@H]3CO[C@](Cn4ccnc4)(c4ccc(Cl)cc4Cl)O3)cc2)CC1    111
CC(C)C[C@H](NC(=O)[C@@H](NC(=O)c1cccc(-c2ccccc2)n1)[C@@H](C)O)B(O)O    111
CN1CCC(CC1)COC2=CN=C(N=C2)C3=CC(=CC=C3)CN4/N=C(\C=C/C4=O)C5=CC(=CC=C5)C#N    110
CC1(C)C(=O)N(CCN2CCC(C(=O)c3ccc(F)cc3)CC2)c2ccccc21    124
Clc1cc(Cl)cc(CNc2ncncc2-c2ccc3c(c2)OCO3)c1    85.5
CCC(=O)OCC(=O)[C@@]1(OC(=O)CC)[C@@H](C)C[C@H]2[C@@H]3CCC4=CC(=O)C=C[C@]4(C)[C@@]3(F)[C@@H](O)C[C@@]21C    98.8
CCN(CC)C(=S)SSC(=S)N(CC)CC    112

Task: Suppose we examine the compound CC(C)Nc1cc(C(F)(F)F)cc2nc(NC(=O)c3cccnc3)nn12 ; what cell viability value has been reported?
Result: 107

Task: Suppose we examine the compound CN(C)C(=O)c1ccc([S+](=O)([O-])c2ccc(NC(=O)[C@@](C)(O)C(F)(F)F)c(Cl)c2)cc1 ; what cell viability value has been reported?
Result: 109

Task: Suppose we examine the compound O=C(CO)N1CCC(c2n[nH]c(-c3ccc(Cl)cc3)c2-c2ccncn2)CC1 ; what cell viability value has been reported?
Result: 115

Task: Suppose we examine the compound C=CC1=C(C(=O)O)N2C(=O)[C@@H](NC(=O)/C(=N\O)c3csc(N)n3)[C@H]2SC1 ; what cell viability value has been reported?
Result: 119

Task: Suppose we examine the compound CNC1[C@@H](O)C(O[C@@H]2C(O)C(O[C@H]3O[C@H]([C@@H](C)NC)CC[C@H]3N)[C@@H](N)C[C@H]2N)OC[C@]1(C)O (stereo partly drawn) ; what cell viability value has been reported?
Result: 99.6

----------
# Tested on: P12-Ichikawa
# measurement.protocol: cell viability relative to DMSO control; higher = less cytotoxic
# setup.conditions: RPMI 5 mM glucose + 10% dialyzed FBS; 48 h; 0.0632 µM
measure: cell viability (%)
Record the value in %, omitting the unit from your answer.

O=C(CO)N1CCC(c2n[nH]c(-c3ccc(Cl)cc3)c2-c2ccncn2)CC1    117

Task: Suppose we examine the compound Oc1ccc(C2CCN(c3ccnc4ccccc34)CC2)cc1O ; what cell viability value has been reported?
Result: 107

Task: Suppose we examine the compound O=C1C[C@@H](c2ccc(O)cc2)Oc2cc(O)cc(O)c21 ; what cell viability value has been reported?
Result: 115

Task: Suppose we examine the compound O=C(Nc1cccc(Nc2ncc(Br)c(NCCc3cnc[nH]3)n2)c1)N1CCCC1 ; what cell viability value has been reported?
Result: 99.5

Task: Suppose we examine the compound CC(C)C[C@H](NC(=O)[C@@H](NC(=O)c1cccc(-c2ccccc2)n1)[C@@H](C)O)B(O)O ; what cell viability value has been reported?
Result: 53.2

----------
# System: SEM cells
# measurement.protocol: cell viability relative to DMSO control; higher = less cytotoxic
# setup.conditions: RPMI 5 mM glucose + 10% FBS; 48 h; 0.569 µM
measure: cell viability (%)
Record the value in %, omitting the unit from your answer.

Consider the following illustrative entries.
C[C@@H]1COCCN1C\2=C\C(=O)N\3CC[C@H](N(CC4=CN=CC(=C4)Cl)C3=N2)C(F)(F)F    122
c1cc(CN2CCCNCCNCCCNCC2)ccc1CN1CCCNCCNCCCNCC1    87.1

Task: Suppose we examine the molecule O=C(/C=C/c1c(C(=O)[O-])[nH]c2cc(Cl)cc(Cl)c12)Nc1ccccc1 ; what cell viability value has been reported?
Result: 121

----------
# Test system: SEM cells
# measurement.protocol: cell viability relative to DMSO control; higher = less cytotoxic
# setup.conditions: RPMI 5 mM glucose + 10% FBS; 48 h; 0.19 µM
Let's look at some compounds and their measured cell viability.
Record the value in %, omitting the unit from your answer.

Consider the following illustrative entries.
CCCCCCCc1ccc(CCc2cccc(O)c2C(=O)O)cc1    112
C[S+](=O)([O-])N(Cc1ccco1)CC(O)Cn1c2ccccc2c2ccccc21 (stereo unspecified)    116
CC(=O)N1CCN(c2ccc(OC[C@H]3CO[C@](Cn4ccnc4)(c4ccc(Cl)cc4Cl)O3)cc2)CC1    28
CN(C)C(=O)c1ccc([S+](=O)([O-])c2ccc(NC(=O)[C@@](C)(O)C(F)(F)F)c(Cl)c2)cc1    108
CCNC(=O)c1cc2c(-c3cc(OCCN4CCCC4)c(Cl)cc3Cl)nc(N)nc2s1    112

Consider the record given below.
Task: Suppose we examine the compound CC(C)(C)c1cc(C=C(C#N)C#N)cc(Br)c1O ; what cell viability value has been reported?
Result: 81.4

----------
Let's look at some compounds and their measured cell viability.
# Tested on: NOMO1
# measurement.protocol: cell viability relative to DMSO control; higher = less cytotoxic
# setup.conditions: RPMI 5 mM glucose + 10% FBS; 48 h; 0.00702 µM
Hey, just the number and the unit after it is fine.

CN1\C(=C(\O)C2=C(C=CS2)[S+]1([O-])=O)C(=O)NC3=CC=CC=N3    113%
Cc1ncc(OC[C@@]2(c3cccc(F)c3)C[C@H]2C(=O)Nc2ccc(F)cn2)c(C)n1    125%
COc1cc(O)c2c(c1)C1OC1C[C@H](O)[C@H](O)C(=O)/C=C\C[C@H](C)OC2=O (stereo partly drawn)    99%
CC(=O)NC(CS)C(=O)O (stereo not drawn)    75.3%
CC(=O)O[C@@]1(CC[C@H]2[C@@H]3\C=C(C)/C4=C/C(=O)CC[C@]4(C)[C@H]3CC[C@]12C)C(C)=O    99.9%

Task: Suppose we examine the compound CN(C)C(=O)c1ccc([S+](=O)([O-])c2ccc(NC(=O)[C@@](C)(O)C(F)(F)F)c(Cl)c2)cc1 ; what cell viability value has been reported?
Result: 102%

Task: Suppose we examine the compound CC(=O)N1CCN(c2ccc(OCc3nn(C)c(C)c3-c3cccc4c(CCCOc5cccc6ccccc56)c(C(=O)O)n(Cc5cccnc5)c34)cc2)CC1 ; what cell viability value has been reported?
Result: 120%

Task: Suppose we examine the compound CC(C)Nc1cc(C(F)(F)F)cc2nc(NC(=O)c3cccnc3)nn12 ; what cell viability value has been reported?
Result: 115%

----------
# Tested on: SEM cells
# measurement.protocol: cell viability relative to DMSO control; higher = less cytotoxic
# setup.conditions: HPLM + 10% dialyzed FBS; 48 h; 0.19 µM
Let's look at some molecules and their measured cell viability.
Record the value in %, omitting the unit from your answer.

Consider the following illustrative entries.
C1CCC(C(CC2CCCCN2)C2CCCCC2)CC1 (stereo unspecified)    110
C[C@@H](O)[C@@H]1[C@H]2[C@@H](C)\C(=C(/N2C1=O)C(=O)OCOC(=O)C(C)(C)C)SC3CN(C3)/C4=N/CCS4    102
c1cc(CN2CCCNCCNCCCNCC2)ccc1CN1CCCNCCNCCCNCC1    101
O=C1Nc2cc(Br)ccc2/C1=C1/Nc2ccccc2/C1=N\O    78.5

Task: Suppose we examine the molecule CN(C/C=C/C#CC(C)(C)C)Cc1cccc2ccccc12 ; what cell viability value has been reported?
Result: 101

Task: Suppose we examine the molecule OC[C@H]1O[C@H]([C@@H](F)[C@@H]1O)N2\C=C/C(=O)NC2=O ; what cell viability value has been reported?
Result: 117

Task: Suppose we examine the molecule Cn1cc(-c2ccc3nnc(C(F)(F)c4ccc5ncccc5c4)n3n2)cn1 ; what cell viability value has been reported?
Result: 108

Task: Suppose we examine the molecule COC[C@@H](NC(C)=O)C(=O)NCc1ccccc1 ; what cell viability value has been reported?
Result: 119

Task: Suppose we examine the molecule O=C(O)c1ccc(-n2nc(-c3ccccc3O)nc2-c2ccccc2O)cc1 ; what cell viability value has been reported?
Result: 94.6

Task: Suppose we examine the molecule CC(C)(C)C(=O)Oc1ccc([S+](=O)([O-])Nc2ccccc2C(=O)NCC(=O)O)cc1 ; what cell viability value has been reported?
Result: 122

Task: Suppose we examine the molecule CC(=O)N1CCN(c2ccc(OC[C@H]3CO[C@](Cn4ccnc4)(c4ccc(Cl)cc4Cl)O3)cc2)CC1 ; what cell viability value has been reported?
Result: 26.4
